Tested on: UO-31 renal
Experiment: NCI-60 one-dose screen, 48 h (100 = growth as untreated, 0 = no growth, -100 = all killed)
Conditions: 10 µM unless noted
Compounds without any hit were thinned out: in the full panel of roughly 83,000, 20% have a hit.
growth overview
Report only the number, with the unit % understood.

SMILES_TEXT | growth, %
COc1ccc(NC2=C(Br)C(=O)C(C)=C(C)C2=O)cc1OC | 83.5
CN1CCC[C@]2(C)[C@H]3CC[C@@H]4[C@@H]5[C@H]6OC[C@@]5(CCC6(C)C)CC[C@@]4(C)[C@]3(C)CC[C@H]2C1(C)C | 91.5
COc1ccc(/C=N/NC(=O)c2c(N)nn(C)c2Nc2ccccc2)cc1Oc1ccccc1 | 71.7
CN1CCN(CC#CCn2c3c(c4ccccc42)C[C@]2(C)[C@H]4CC=C5[C@@H]6CC(C)(C)CC[C@]6(C(=O)N6CCOCC6)CC[C@@]5(C)[C@]4(C)CC[C@H]2C3(C)C)CC1 | 56.5
CCCCCCOC(=O)c1cc(-c2ccc(F)cc2)nc2ccccc12 | 86.6

## Input What value of growth has been reported for the following compound? O=C(/C=C/c1cc(Cl)ccc1Cl)Nc1ncc(Cc2ccc(Cl)cc2)s1
## Output 19.3

## Input What value of growth has been reported for the following compound? Cc1cc2nc3c4cc(C#N)ccc4n(CCN(C)C)c3nc2cc1C
## Output -27.9

## Input What value of growth has been reported for the following compound? CC1CCN(CC(=O)Nn2c(COc3ccccc3)nc3ccccc3c2=O)CC1
## Output 70.7

## Input What value of growth has been reported for the following compound? CN1CCN(c2ccc(Nc3nc(NCCNS(=O)(=O)c4ccc5ccccc5c4)c4sccc4n3)cc2)CC1
## Output 68.9

## Input What value of growth has been reported for the following compound? CN1CCN(c2ccc(Nc3nc(NCCCNS(=O)(=O)c4ccc(F)cc4)c4sccc4n3)cc2)CC1
## Output 64.7

## Input What value of growth has been reported for the following compound? O=C(Nc1ccc(Cl)c(C(F)(F)F)c1)Nc1ccc2c(ccn2C(=O)c2cccc(F)c2)c1
## Output 35.6

----------
Test system: RPMI-8226 leukemia
Assay: NCI-60 one-dose screen, 48 h (100 = growth as untreated, 0 = no growth, -100 = all killed)
Conditions: 10 µM unless noted
About 83,000 compounds went through this panel and 20% of them were active in at least one assay; those are over-represented in the sample as a whole. Activity calls are given as the source filed them. How the source made its calls: active means growth percent below 10; inactive means the rest.
growth overview

Record excerpt, results attached:
SMILES_TEXT | growth
O=c1c2ccccc2cc2n1CCN=C2c1ccccc1 | 99.2% (inactive)
N#Cc1nc(-c2ccccc2)oc1N1CCC(C2(C(F)(F)F)N=N2)CC1 | 97.2% (inactive)

API: the following record is the query input.
## Input What value of growth has been reported for the following molecule? COC(=O)CCCNCCCn1ccc2cc(NCc3cccc(-c4ccccc4)c3C)ccc21
## Output 28.3% (inactive)

----------
Test system: NCI/ADR-RES ovarian
Assay: NCI-60 one-dose screen, 48 h (100 = growth as untreated, 0 = no growth, -100 = all killed)
Conditions: 10 µM unless noted
This is part of a sample that, as a whole, favours compounds with a hit. Of some 83,000 tested, about 20% had one in any assay.
ASSAY_METRIC: growth (%)
Report only the number, with the unit % understood.

COMPOUND | UNIT_TEXT | growth
COc1ccc(/C=N/NC(=O)CSc2nc(-c3cnccn3)cc(-c3cccs3)c2C#N)cc1OC | % | 96.6
CCOP(=O)(OCC)OC[C@]12CCC(C)(C)C[C@H]1C1=CC[C@@H]3[C@@]4(C)CC[C@H](OP(=O)(OCC)OCC)C(C)(C)[C@@H]4CC[C@@]3(C)[C@]1(C)CC2 | % | 65.8
CNC(=O)c1cc(N2CCc3cc(NC(=O)Nc4ccc(N5CCN(C)CC5)c(C(F)(F)F)c4)ccc32)ccn1 | % | 97.4

## Input Give the reported growth for COc1ccc(OC)c(NC(=O)CCCCCCNC(=O)C(O)(O)C(F)(F)F)c1 (system: NCI/ADR-RES ovarian).
## Output 32.8

## Input Give the reported growth for COc1ccc(/C=N/NC(=O)CSc2nc(-c3cnccn3)cc(-c3cccs3)c2C#N)cc1 (system: NCI/ADR-RES ovarian).
## Output 65.8

## Input Give the reported growth for O=C(CSc1nnc(-c2ccc(Cl)cc2)n1-c1ccccc1)Nc1ccc(Cl)cc1 (system: NCI/ADR-RES ovarian).
## Output 34.7

## Input Give the reported growth for Cc1cccc(N2CCN(C3=C(Cl)C(=O)c4ncccc4C3=O)CC2)c1 (system: NCI/ADR-RES ovarian).
## Output 78.7

## Input Give the reported growth for C=CCSC1=NC2C(N(CC)C(=O)N2CC)N1/N=C/C=C/c1ccccc1OC (stereo not given) (system: NCI/ADR-RES ovarian).
## Output 53.3

## Input Give the reported growth for CCCCSC1=C(Cl)CN(c2ccccc2)C1=O (system: NCI/ADR-RES ovarian).
## Output 103

## Input Give the reported growth for C[C@H]1OCC2(CCN(c3cnc(C(=O)Nc4cc(F)cc5cccnc45)cn3)CC2)[C@H]1N (system: NCI/ADR-RES ovarian).
## Output 72.2

## Input Give the reported growth for CC(C)NC(=O)c1cc(-c2ccc(NC(=O)Nc3ccc(F)c(C(F)(F)F)c3)cc2)nc2cccnc12 (system: NCI/ADR-RES ovarian).
## Output 98.2

## Input Give the reported growth for Cc1ccc(/C=N/Nc2nc(Nc3ccccc3)nc(Nc3ccc(S(N)(=O)=O)cc3)n2)cc1 (system: NCI/ADR-RES ovarian).
## Output 101

## Input Give the reported growth for CN1CCN(c2ccc(Nc3nc(NCCCNS(=O)(=O)c4ccc(Cl)cc4)c4sccc4n3)cc2)CC1 (system: NCI/ADR-RES ovarian).
## Output 47.7

## Input Give the reported growth for O=C1/C(=C/c2cc(F)cc(F)c2)Cc2cc3c(cc21)OCO3 (system: NCI/ADR-RES ovarian).
## Output 19.4

## Input Give the reported growth for CS(=O)(=O)c1ccc(/C(=N/N=C(N)N)c2ccc(F)cc2)cc1 (system: NCI/ADR-RES ovarian).
## Output 95.7

----------
System: SK-MEL-5 melanoma
Assay: NCI-60 one-dose screen, 48 h
Conditions: 10 µM unless noted
This is part of a sample that, as a whole, favours compounds with a hit. Of some 83,000 tested, about 20% had one in any assay. Calls of active or inactive are those of the source. How the source made its calls: active means growth percent below 10; inactive means the rest.
Field 'call' accepts TRUE for active, FALSE for inactive

COMPOUND | TESTED_ON | GROUP
O=C1C(SCc2ccccc2)=C(Cl)CN1c1ccc(Cl)cc1 | SK-MEL-5 melanoma | FALSE
NC1=NC2(CCCC2)N(c2ccc(S(=O)(=O)Nc3nccs3)cc2)C(N)=N1 | SK-MEL-5 melanoma | FALSE
CC1=C(C)C(=O)C(Nc2ccc3c(c2)OCO3)=C(Br)C1=O | SK-MEL-5 melanoma | FALSE

## Input Recorded call for C#Cc1nc(/C=C/C(=O)NO)cs1 ?
## Output FALSE

## Input Recorded call for Nc1cc(C(=O)N/N=C\c2ccc(OC(F)F)c(OC3CCCC3)c2)nn1CC(O)c1ccccc1 (centres undefined) ?
## Output FALSE

## Input Recorded call for O=C1[C@@H]2Cc3c([nH]c4ccccc34)[C@H](c3ccc(Br)cc3)N2C(=O)CN1C1CCN(Cc2c(Cl)cccc2Cl)CC1 ?
## Output FALSE

## Input Recorded call for CN1CCN(c2ccc(Nc3nc(NCCCNS(=O)(=O)c4ccc(F)cc4)c4sccc4n3)cc2)CC1 ?
## Output FALSE

## Input Recorded call for COc1cc(OC)cc(-c2cc(-c3c[nH]c4ccccc34)nc(-c3c[nH]c4ccccc34)c2C#N)c1 ?
## Output FALSE

## Input Recorded call for O=c1c2cc(-c3ccc(F)cc3F)ccc2n(Nc2ccccc2)c(=O)n1-c1cccc(C(F)(F)F)c1 ?
## Output TRUE

----------
Tested on: NCI-H322M lung
Assay: NCI-60 one-dose screen, 48 h (100 = growth as untreated, 0 = no growth, -100 = all killed)
Details: 10 µM unless noted
About 83,000 compounds went through this panel and 20% of them were active in at least one assay; those are over-represented in the sample as a whole.
ASSAY_METRIC: growth (%)
Report only the number, with the unit % understood.

COMPOUND | UNIT_TEXT | OBS_VALUE
C#C[C@]1(O)CC[C@H]2[C@@H]3CC=C4c5sc(Nc6cccc(F)c6)nc5CC[C@]4(C)[C@H]3CC[C@@]21C | % | 53.7
NCCNC(=O)c1cccc(COc2ccccc2NC(=O)c2cc(Br)c(Br)[nH]2)c1 | % | 99.7
COc1cc(/C=C2/C(=O)Nc3ccc(Cl)cc32)ccc1OCc1ccc(Cl)cc1 | % | 89.3

## Input Give the reported growth for Fc1cc(F)cc(NNC(=S)c2ccccc2)c1 (system: NCI-H322M lung).
## Output 73.4

## Input Give the reported growth for O=C(CSc1nc2ccccc2c(=O)n1-c1ccc(S(=O)(=O)Nc2ccc(Cl)nn2)cc1)Nc1ccc(S(=O)(=O)Nc2ccc(Cl)nn2)cc1 (system: NCI-H322M lung).
## Output 101

## Input Give the reported growth for COCCOc1ccc2ncc(C#Cc3cncc(C(=O)Nc4ccc(CN5CCN(C)CC5)c(C(F)(F)F)c4)c3)n2n1 (system: NCI-H322M lung).
## Output 18.7

## Input Give the reported growth for Cn1c2nc3ccccc3c-2cc2ccccc21 (system: NCI-H322M lung).
## Output 4.32

Every entry's value here was drawn from PubChem BioAssay (NCI).
